Origin of measurements: paper doi:10.1101/2025.01.15.633165

Target: T1, DRB4 (Arabidopsis thaliana, UniProt Q8H1D4 1-355)
T1 sequence: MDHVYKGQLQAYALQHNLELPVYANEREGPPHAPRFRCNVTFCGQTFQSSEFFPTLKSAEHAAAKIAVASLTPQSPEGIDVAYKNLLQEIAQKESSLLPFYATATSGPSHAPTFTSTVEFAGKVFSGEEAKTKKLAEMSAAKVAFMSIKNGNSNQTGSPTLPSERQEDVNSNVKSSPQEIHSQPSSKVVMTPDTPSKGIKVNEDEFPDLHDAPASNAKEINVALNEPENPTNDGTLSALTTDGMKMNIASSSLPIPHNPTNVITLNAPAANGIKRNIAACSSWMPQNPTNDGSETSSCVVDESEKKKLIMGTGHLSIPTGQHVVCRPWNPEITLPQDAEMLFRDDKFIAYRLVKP
Assay: EMSA; apparent Kd; Hill 2.44±0.45; EMSA: 50 mM potassium phosphate pH 7.0, 50 mM NaCl, 50 mM Na2SO4, 2 mM DTT; 40 bp RNA at 750 nM, 30 min, room temperature; 32P 80 bp dsRNA at 1 nM, 1 h, 4 C
Settings: protein: recombinant, label: none (SYBR Gold stain), 1 nt 3' overhang (C) on complementary strand
REPORTED_METRIC: Kd (µM)
Report the figure in µM without appending any unit label.

Kd in this record for 40 bp RNA (pre-siRNA) (dsRNA, 5'-phosphate on guide strand) RNA 1: AACAAGCGAAUGAGUCAUUCAUCCUAAGUCUGCAUAAAGU RNA 2: ACUUUAUGCAGACUUAGGAUGAAUGACUCAUUCGCUUGUUC : 3.6
